The measurements presented in this section are drawn from ChEMBL document CHEMBL1133354.

molecular target: 5-hydroxytryptamine receptor 1B (Homo sapiens, UniProt P28222)
Sequence (P28222 whole entry): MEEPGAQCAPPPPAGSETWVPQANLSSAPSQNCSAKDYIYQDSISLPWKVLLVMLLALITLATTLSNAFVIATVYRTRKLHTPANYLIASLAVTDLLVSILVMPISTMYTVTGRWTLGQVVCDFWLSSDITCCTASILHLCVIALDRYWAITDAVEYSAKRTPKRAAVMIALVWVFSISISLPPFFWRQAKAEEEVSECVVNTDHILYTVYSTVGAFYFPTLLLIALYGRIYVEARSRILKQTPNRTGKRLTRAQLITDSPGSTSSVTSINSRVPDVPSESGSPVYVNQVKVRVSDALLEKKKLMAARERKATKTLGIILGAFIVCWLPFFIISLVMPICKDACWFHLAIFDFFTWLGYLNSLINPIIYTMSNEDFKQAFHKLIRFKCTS
// boundary case: Ki equal to 100 nM maps to rule not met; strictly smaller maps to rule met

compound=OC[C@@H]1CCCN1CCc1c[nH]c2ccc(-c3cccs3)cc12 class_name="rule not met"
compound=COC[C@@H]1CCCN1CCc1c[nH]c2ccc(-c3cccs3)cc12 class_name="rule met"
compound=NCCc1c[nH]c2ccc(-c3cccs3)cc12 class_name="rule met"
compound=C1=CCN(CCc2c[nH]c3ccc(-c4cccs4)cc23)C1 class_name="rule not met"
compound=CN(C)CCc1c[nH]c2ccc(-c3ccsc3)cc12 class_name="rule met"
compound="CC1CCC(C)N1CCc1c[nH]c2ccc(-c3cccs3)cc12 (stereo unspecified)" class_name="rule met"
compound=c1csc(-c2ccc3[nH]cc(CCN4CCCC4)c3c2)c1 class_name="rule not met"
compound=CN(C)CCc1c[nH]c2ccc(-c3ccc(Cl)s3)cc12 class_name="rule not met"
compound=CN(C)CCc1c[nH]c2ccc(-c3cccs3)cc12 class_name="rule met"
compound=Cc1ccc(-c2ccc3[nH]cc(CCN(C)C)c3c2)s1 class_name="rule not met"
compound=Clc1ccc(-c2ccc3[nH]cc(CCN4CCCC4)c3c2)s1 class_name="rule not met"
